Assay: Solubility in water by titration
Format: physicochemical
Conditions: deionised water; DI water
Numbered stars: 1 amine (or outer) side, 2 acyl side, 3 side chain; on linkers, the order of the positions; unused ones are H or OH. Square brackets hold non-standard residues; d marks the D form. Peptide text beside a SMILES is read from it. N((CH2)3OiPr)Gly = CC(C)OCCCNCC(=O)O; X1 = CC(c1ccccc1)N(CC(=O)[*:2])[*:1]; Nleu = CC(C)CNCC(=O)O; Nlys = NCCCCNCC(=O)O; Nme = COCCNCC(=O)O

{"columns": ["Compound", "solubility"],
 "data": [
  ["COCCN(CC(=O)NC(CCCCN)C(=O)NC(CCSC)C(N)=O)C(=O)CN(CC(C)C)C(=O)CN(C(=O)CN(CCCCN)C(=O)CN(CCCOC(C)C)C(=O)CNCCCCN)C(C)c1ccccc1 (stereo not shown) [TRBP6] (H-[Nlys][N((CH2)3OiPr)Gly][Nlys][X1][Nleu][Nme]KM-NH2; configuration not given here)", "> 496 mg/mL"]
]}
